FYI, the data here is from the supplement of paper PMC9112550.

# maps each entry to its shrunken log2 fold change
- Test system: Escherichia coli TOP10;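 also: peptides expressed intracellularly from a pBAD plasmid library in pooled LB shake-flask culture, induced with 0.3% L-arabinose, DNA abundance read by NGS, three biological replicates, DESeq2 with apeglm shrinkage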
- protocol_notes: shrunken log2 fold change of peptide-encoding DNA abundance (4.5 h post-induction vs induction); higher = less antimicrobial activity (less host growth inhibition)
- condition_description: time post-induction: 4.5 h; library: site-saturation at positions 5, 18, 19, 20
// keep it numeric: no unit symbol after the value

Examples from the recorded data:
- sequence_chain: "RRIRQRPPRLPRPRPRPQQQPRP"
  shrunken log2 fold change: -0.0448
- sequence_chain: "RRIRFRPPRLPRPRPRPVDWPRP"
  shrunken log2 fold change: 0.194
- sequence_chain: "RRIRYRPPRLPRPRPRPATFPRP"
  shrunken log2 fold change: -0.681
- sequence_chain: "RRIRWRPPRLPRPRPRPQPMPRP"
  shrunken log2 fold change: 0.145

// shrunken log2 fold change lookup, key: "RRIRSRPPRLPRPRPRPHLAPRP"
-0.0617

Can you handle "RRIRMRPPRLPRPRPRPTDQPRP" next?
1.46

Can you handle "RRIRDRPPRLPRPRPRPYMTPRP" next?
-0.0206

Can you handle "RRIRDRPPRLPRPRPRPFEAPRP" next?
0.277

Can you handle "RRIRHRPPRLPRPRPRPTLDPRP" next?
0.0219
